# Test system: L-FABP
# Test Conditions: rat, in vivo
Result Type: L-FABP level by Western blotting

c1ccoc1 ... decrease in L-FABP
ClC(Cl)(Cl)Cl ... decrease in L-FABP
